Tested on: γ1-containing AMPK complexes in HEK-293 cells expressing FLAG–γ1
Assay: Activation of AMPK complexes in intact cells (anti-FLAG IP kinase assay and pThr172 blot)
Type: cell-based, human
Conditions: γ1 complex; 60 min; phenformin 10 mM, berberine 300 μM, A23187 10 μM, A-769662 300 μM
quantity: AMPK activation and Thr172 phosphorylation in intact cells

>>> print(df.to_string())
                                   compound  obs_value
0  CNc1ccc2oc(C[C@H]3O[C@@]4(CC[C@H]3C)O[C@H]([C@H](C)C(=O)c3ccc[nH]3)[C@H](C)C[C@H]4C)nc2c1C(=O)O  activated
1  COc1ccc2cc3[n+](cc2c1OC)CCc1cc2c(cc1-3)OCO2 [berberine, Berberine chloride]  activated
2         [H]/N=C(/N)N/C(=N/[H])NCCc1ccccc1  activated
